Molecular target: C-RAF (Homo sapiens, UniProt P04049)
Construct: purchased Reaction Biology Corporation (Malvern, Pa.), contract assay service
Sequence (P04049 whole entry): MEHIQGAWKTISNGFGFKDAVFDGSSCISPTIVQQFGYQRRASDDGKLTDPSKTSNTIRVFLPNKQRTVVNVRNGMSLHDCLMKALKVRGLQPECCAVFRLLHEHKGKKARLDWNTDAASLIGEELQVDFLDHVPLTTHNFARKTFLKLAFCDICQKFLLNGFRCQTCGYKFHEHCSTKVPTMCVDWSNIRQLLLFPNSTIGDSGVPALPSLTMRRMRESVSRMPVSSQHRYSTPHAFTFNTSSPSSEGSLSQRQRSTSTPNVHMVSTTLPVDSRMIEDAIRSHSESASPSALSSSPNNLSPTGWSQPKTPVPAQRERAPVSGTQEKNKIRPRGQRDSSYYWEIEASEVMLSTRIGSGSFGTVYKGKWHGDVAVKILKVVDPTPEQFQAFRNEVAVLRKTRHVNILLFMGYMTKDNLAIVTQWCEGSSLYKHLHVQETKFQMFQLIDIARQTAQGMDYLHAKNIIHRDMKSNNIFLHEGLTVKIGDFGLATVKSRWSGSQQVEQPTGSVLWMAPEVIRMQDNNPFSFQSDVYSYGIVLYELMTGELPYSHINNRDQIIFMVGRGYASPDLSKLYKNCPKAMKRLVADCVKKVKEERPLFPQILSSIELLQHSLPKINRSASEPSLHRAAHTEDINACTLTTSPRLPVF
Test: Kinase inhibition assay (Reaction Biology Corporation)
Type: biochemical
Settings: Table 2; 10 μM ATP, 10-point curve
Endpoint Name: IC50 (nM)
The response must be a number in nM with no trailing unit.

In the examples that follow, each entry is paired with its recorded IC50.
Cc1ccc(C(=O)Nc2cc(-n3ccnc3)cc(C(F)(F)F)c2)cc1C#Cc1cnc2c(NC(N)=O)cccn12 ... 12.7
Cc1ccc(C(=O)Nc2cc(CN3CCOCC3)cc(C(F)(F)F)c2)cc1C#Cc1cnc2ccccn12 ... 83.1
Cc1ccc(C(=O)Nc2cc(-c3cncnc3)cc(C(F)(F)F)c2)cc1C#Cc1cnc2cccnn12 ... 8.5
Cc1ccc(C(=O)Nc2cc(N3CCOCC3)cc(C(F)(F)F)c2)cc1C#Cc1cnc2cccnn12 ... 17.2
Cc1cnc(NC(=O)c2ccc(C)c(C#Cc3cnc4c(NC(N)=O)cccn34)c2)s1 ... 2.49
CC(=O)Nc1cccn2c(C#Cc3cc(NC(=O)Nc4cc(C(F)(F)F)ccn4)ccc3C)cnc12 ... 5.09
Cc1ccc(C(=O)Nc2cc(-n3cnc(C#N)c3)cc(C(F)(F)F)c2)cc1C#Cc1cnc2ccccn12 ... 998
Cc1ccc(C(=O)Nc2ccc(C(F)(F)F)cc2)cc1C#Cc1cnc2cccnn12 ... 4.39
Cc1ccc(-c2nc3cc(C(F)(F)F)ccc3[nH]2)cc1C#Cc1cnc2cccnn12 ... 5.8
O=C(Nc1cccc(C(F)(F)F)c1)c1cncc(C#Cc2cnc3cccnn23)c1 ... 2.07

Could you tell me which IC50 is on file for Cc1ccc(C(=O)Nc2ccc(C#N)c(C(F)(F)F)c2)cc1C#Cc1cnc2ccccn12 ?
57.3
